Listing of entries alongside the reported Ki.
- TESTED SYSTEM: BRD4 (BDI_K57-E168) (Homo sapiens)
- EXPERIMENT SUMMARY: TR-FRET bromodomain binding assay, BRD4 BDI
QUANTITY: Ki (nM)

>>> measurement("Cc1cc(F)cc(C)c1Oc1ccc(C(C)(C)O)cc1-c1cn(C)c(=O)cc1O[C@H]1CC[C@H](N2CCOC2=O)CC1")
2500
>>> measurement("Cc1cc(F)cc(C)c1Oc1ccc(C(C)(C)O)cc1-c1cn(C)c(=O)cc1O[C@H]1CC[C@H](N2CCCCC2=O)CC1")
2220
>>> measurement("Cc1cc(F)cc(C)c1Oc1ccc(C(C)(C)O)cc1-c1cn(C)c(=O)cc1O[C@H]1CC[C@H](N2CCCCCC2=O)CC1")
2510

Values compiled from patent US20210047304A1.
